Measured on: Estrogen receptor (Homo sapiens) + Estrogen receptor beta (Homo sapiens) (UniProt P03372+Q92731)
Sequence (P03372 whole entry, looked up): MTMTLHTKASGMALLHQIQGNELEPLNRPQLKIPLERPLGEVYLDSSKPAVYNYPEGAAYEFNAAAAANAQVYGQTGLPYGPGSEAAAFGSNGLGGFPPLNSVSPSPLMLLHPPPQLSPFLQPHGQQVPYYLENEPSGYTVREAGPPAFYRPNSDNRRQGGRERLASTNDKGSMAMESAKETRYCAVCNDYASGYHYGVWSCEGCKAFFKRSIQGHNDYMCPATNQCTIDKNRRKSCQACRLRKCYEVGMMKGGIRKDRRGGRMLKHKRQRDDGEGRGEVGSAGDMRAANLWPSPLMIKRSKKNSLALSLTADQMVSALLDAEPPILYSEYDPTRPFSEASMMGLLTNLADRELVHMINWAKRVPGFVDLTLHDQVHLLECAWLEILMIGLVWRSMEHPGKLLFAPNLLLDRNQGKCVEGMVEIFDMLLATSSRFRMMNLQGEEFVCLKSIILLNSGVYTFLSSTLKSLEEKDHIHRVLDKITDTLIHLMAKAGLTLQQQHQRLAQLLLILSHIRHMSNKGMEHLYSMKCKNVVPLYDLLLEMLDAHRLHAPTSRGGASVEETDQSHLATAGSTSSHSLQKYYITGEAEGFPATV
Sequence (Q92731 whole entry, looked up): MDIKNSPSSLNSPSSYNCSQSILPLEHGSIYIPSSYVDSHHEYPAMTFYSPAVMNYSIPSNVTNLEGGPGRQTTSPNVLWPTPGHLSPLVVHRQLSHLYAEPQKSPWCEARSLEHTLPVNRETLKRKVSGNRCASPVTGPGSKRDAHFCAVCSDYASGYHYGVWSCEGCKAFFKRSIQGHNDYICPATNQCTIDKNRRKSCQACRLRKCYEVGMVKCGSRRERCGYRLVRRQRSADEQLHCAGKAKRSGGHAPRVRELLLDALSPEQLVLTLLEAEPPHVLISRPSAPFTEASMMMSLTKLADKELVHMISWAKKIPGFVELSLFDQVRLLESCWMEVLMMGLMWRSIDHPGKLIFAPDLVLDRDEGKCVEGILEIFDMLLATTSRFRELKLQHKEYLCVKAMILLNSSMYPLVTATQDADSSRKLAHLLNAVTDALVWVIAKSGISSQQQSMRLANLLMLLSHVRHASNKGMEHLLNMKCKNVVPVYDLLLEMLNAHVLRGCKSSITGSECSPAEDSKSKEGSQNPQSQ
Test details: OT_ER_ERaERb_0480: Odyssey Thera (OT) 8-hour HEK293T Protein-Complementation Assay for Estrogen Receptor-alpha/-beta Heterodimer (AID 2283352)
Description: OT_ER_ERaERb_0480 is a cell-based assay that uses HEK293T, a human kidney cell line, with measurements taken at 8 hours after chemical dosing in a 384-well plate.OT_ER_ERaERb_0480 is one of one assay component(s) measured or calculated from the OT_ER_ERaERb_0480 assay. […] This assay endpoint, OT_ER_ERaERb_0480, was analyzed in the positive analysis fitting direction relative to DMSO as the negative control and baseline of activity. […]
Results filed as inconclusive are left out. Calls of active or inactive are those of the source. The calls were made as follows: active = hit-call score of the fitted dose curve at least 0.9, where 1 is the maximum; inconclusive = response in the unintended direction; inactive = score below 0.9.
Labels: active, inactive

> print(dat)
                                    compound  label.value
 1                    c1ccc2c(c1)Nc1ccccc1S2     inactive
 2                        O=C(CBr)OCc1ccccc1     inactive
 3                           CCOS(=O)(=O)OCC     inactive
 4                      CCC(C)(C)c1ccc(O)cc1       active
 5                           Nc1ccc2ccccc2c1     inactive
 6                        CCOP(=S)(OCC)SCSCC     inactive
 7                                c1nc[nH]n1     inactive
 8  O=S1(=O)OCC2C(CO1)C1(Cl)C(Cl)=C(Cl)C2(Cl)C1(Cl)Cl (stereo unspecified)     inactive
 9  CCCN(CCC)c1c([N+](=O)[O-])cc(C(C)C)cc1[N+](=O)[O-]       active
10                                  O=C(O)CF     inactive
11  CC1(C)CN=C(NN=C(/C=C/c2ccc(C(F)(F)F)cc2)/C=C/c2ccc(C(F)(F)F)cc2)NC1     inactive
12                      c1cc2c3c(cccc3c1)CC2     inactive
13                        CCCCN(CC)C(=O)SCCC     inactive
14                  Cc1ccc([N+](=O)[O-])cc1C     inactive
15  O=P1(N(CCCl)CCCl)NCCCO1 (stereo unspecified)     inactive
16                        CC(C)(C)OOC(C)(C)C     inactive

Source of measurements: PubChem BioAssay (EPA / NIEHS)
